# assay_name: Clearance in mouse at 10 mg/kg, po and 3 mg/kg, iv
# Format: ADME, organism-based
# condition_description: in vivo
Would you mind telling me the reported clearance of each entry?
Remember to follow the number with its unit.

Briefly, clearance measured for O=C(c1cc(Cc2n[nH]c(=O)c3c2NCCC3)ccc1F)N1CCN(c2ncccn2)CC1 : 14.8 mL/min/kg

Query molecule follows.
Briefly, clearance measured for O=C(c1cc(Cc2n[nH]c(=O)c3c2NCCC3)ccc1F)N1CCN(c2ccccn2)CC1 : 34 mL/min/kg

---

Would you mind telling me the reported AUC of each entry?
# System: Mus musculus
# assay_name: AUC (0 to 8 hrs) in mouse at 10 mg/kg, po
# Type: ADME, organism-based, Plasma
# Set-up: time < 8 hr, dose 10 mg/kg, route oral
# condition_description: in vivo, 8 h
Numbers only, in µg·h/mL.

Briefly, AUC measured for O=C(c1cc(Cc2n[nH]c(=O)c3c2CCCC3)ccc1F)N1CCN(c2ccccn2)CC1 : 2.7

Briefly, AUC measured for O=C(c1cc(Cc2n[nH]c(=O)c3c2CCCC3)ccc1F)N1CCN(c2ncccn2)CC1 : 2.38

Briefly, AUC measured for O=C1CCCN1c1cc(Cc2n[nH]c(=O)c3c2NCCC3)ccc1F : 3.11

Query compound follows.
Briefly, AUC measured for O=C1CCCN1c1cc(Cc2n[nH]c(=O)c3c2CCCC3)ccc1F : 0.33

---

# assay_name: Cmax in mouse at 10 mg/kg, po
# Type: ADME, organism-based
# Parameters: dose 10 mg/kg, route oral
# condition_description: in vivo
Label met for high-side Cmax (at or above 1 µg/mL) and not met for low-side Cmax (below it).

Quick check: does O=C(c1cc(Cc2n[nH]c(=O)c3c2CCCC3)ccc1F)N1CCN(c2ncccn2)CC1 have Cmax greater than or equal to 1 µg/mL? met

Proceed to the following item.
Quick check: does O=C(c1cc(Cc2n[nH]c(=O)c3c2CCCC3)ccc1F)N1CCN(c2ccccn2)CC1 have Cmax greater than or equal to 1 µg/mL? met

---

# assay_name: Half life in mouse at 3 mg/kg, iv
# Type: ADME, organism-based
# Parameters: dose 3 mg/kg, route intravenous
# condition_description: in vivo
Would you mind telling me the reported half-life of each entry?
Numbers only, in min.

Briefly, half-life measured for O=C(c1cc(Cc2n[nH]c(=O)c3c2NCCC3)ccc1F)N1CCN(c2ncccn2)CC1 : 232

Briefly, half-life measured for O=C1CCCN1c1cc(Cc2n[nH]c(=O)c3c2CCCC3)ccc1F : 16.8

---
Briefly, half-life measured for O=C1CCCN1c1cc(Cc2n[nH]c(=O)c3c2NCCC3)ccc1F : 29.4

---

# assay_name: Cmax in mouse at 10 mg/kg, po
# Assay type: ADME, organism-based
# Set-up: dose 10 mg/kg, route oral
# condition_description: in vivo
reported_metric: Cmax (µg/mL)
Give bare numbers, in µg/mL.

Use these answered entries as a reference point.
Briefly, Cmax measured for O=C(c1cc(Cc2n[nH]c(=O)c3c2NCCC3)ccc1F)N1CCN(c2ncccn2)CC1 : 5.6

Briefly, Cmax measured for O=C(c1cc(Cc2n[nH]c(=O)c3c2NCCC3)ccc1F)N1CCN(c2ccccn2)CC1 : 2.01

Briefly, Cmax measured for O=C1CCCN1c1cc(Cc2n[nH]c(=O)c3c2CCCC3)ccc1F : 0.14

Query compound follows.
Briefly, Cmax measured for O=C1CCCN1c1cc(Cc2n[nH]c(=O)c3c2NCCC3)ccc1F : 1.5
